- System: 697
- Assay Summary: selective drug sensitivity score (sDSS, relative to normal bone marrow) (sDSS (score)); higher = more potent and effective on the cell line relative to normal bone marrow cells;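 further: ALL cell lines in 384-well plates, five doses spanning 10,000-fold, each plate scaled between vehicle and 100 µmol/L benzalkonium chloride controls, sDSS an adapted area-under-curve metric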
- Assay Setup: 72 h
Experimental Readout: selective drug sensitivity score
One number for each entry.

CN1CCN(C2CCN(C(=O)Nc3cc(Oc4ccc(NC(=O)C5(C(=O)Nc6ccc(F)cc6)CC5)c(F)c4)ccn3)CC2)CC1 [Golvatinib] (top concentration 2500 nM); 1.76
COc1ccc(COc2cc3oc(=O)c4cc(C(C)O)ccc4c3cc2OC)cc1 (configuration not stated) [Palomid-529] (top concentration 10000 nM); 0.06
CCN(CCO)CCCOc1ccc2c(Nc3cc(CC(=O)Nc4cccc(F)c4)[nH]n3)ncnc2c1 [AZD1152-HQPA] (top concentration 1000 nM); 16.5
CCS(=O)(=O)Nc1ccc(Oc2ccc(F)cc2F)c(-c2cn(C)c(=O)c3[nH]ccc23)c1 [Mivebresib] (top concentration 10000 nM); 16.5
CC(C)(C)c1cc(NC(=O)Nc2ccc(Oc3ccnc4[nH]c(=O)cnc34)cc2F)n(-c2ccccc2)n1 (top concentration 25000 nM); 4.72

Provide selective drug sensitivity score values for the following items, in order.
1. O=C1CCc2c(Oc3ccc4c(c3)[C@@H]3[C@H](O4)[C@H]3c3nc4cc(C(F)(F)F)ccc4[nH]3)ccnc2N1 [Lifirafenib (BGB-283)] (top concentration 10000 nM)
2. c1cn2cc(-c3ccc4cn[nH]c4c3)nc(Nc3ccc(N4CCOCC4)cc3)c2n1 [Entospletinib] (top concentration 5000 nM)
3. CCC1=C[C@@H]2CN(C1)Cc1c([nH]c3ccccc13)[C@@](C(=O)OC)(c1cc3c(cc1OC)N(C)[C@H]1[C@@](O)(C(=O)OC)[C@H](OC(C)=O)[C@]4(CC)C=CCN5CC[C@]31[C@@H]54)C2 [Vinorelbine] (top concentration 10000 nM)
4. C[C@]1(O)C[C@@H](c2nc(-c3ccc4ccc(-c5ccccc5)nc4c3)c3c(N)nccn32)C1 [Linsitinib] (top concentration 10000 nM)

Result:
1. 6.68
2. 3.16
3. 25
4. -2.68

Provide selective drug sensitivity score values for the following items, in order.
1. O=C(/C=C/c1cccc(S(=O)(=O)Nc2ccccc2)c1)NO [Belinostat] (top concentration 10000 nM)
2. Cc1nc(NC(=O)N2CCC[C@H]2C(N)=O)sc1-c1ccnc(C(C)(C)C(F)(F)F)c1 [Alpelisib] (top concentration 2500 nM)
3. CNC(=O)[C@@H](NC(=O)[C@H](CC(C)C)[C@H](O)C(=O)NO)C(C)(C)C [Marimastat] (top concentration 10000 nM)

Result:
10.1
1.08
-0.68

----------
Hi there, I'd appreciate the recorded selective drug sensitivity score for every entry that follows.
- Test system: MOLT-16
- Assay Summary: selective drug sensitivity score (sDSS, relative to normal bone marrow) (sDSS (score)); higher = more potent and effective on the cell line relative to normal bone marrow cells
- Assay Setup: 72 h
Numbers only.

CCN1CCN(c2ccc(Nc3cc(N(C)C(=O)Nc4c(Cl)c(OC)cc(OC)c4Cl)ncn3)cc2)CC1 [Infigratinib] (top concentration 1000 nM); 0
COc1cc(C(=O)O)ccc1NC(=O)[C@@H]1N[C@@H](CC(C)(C)C)[C@](C#N)(c2ccc(Cl)cc2F)[C@H]1c1cccc(Cl)c1F [Idasanutlin] (top concentration 10000 nM); 21.3

Kindly review the next molecule as well.
Task: Please look up its selective drug sensitivity score: CCS(=O)(=O)N1CCN(c2ccc(Nc3ncc(C(N)=O)c(NC4CC4)n3)cc2)CC1 [Cerdulatinib] (top concentration 10000 nM)
Result: -2.36

----------
- System: LC4-1
- Assay Summary: selective drug sensitivity score (sDSS, relative to normal bone marrow) (sDSS (score)); higher = more potent and effective on the cell line relative to normal bone marrow cells
- Assay Setup: 72 h
Experimental Readout: selective drug sensitivity score

# example entries with known answers
Clc1ccc(C(c2ccccc2Cl)C(Cl)Cl)cc1 (configuration not stated) [Mitotane] (top concentration 10000 nM); -0.08
COc1cccc2c1C(=O)c1c(O)c3c(c(O)c1C2=O)C[C@@](O)(/C(CO)=N/NC(=O)CCCCCN1C(=O)C=CC1=O)C[C@@H]3O[C@H]1C[C@H](N)[C@H](O)[C@H](C)O1 [Aldoxorubicin] (top concentration 1000 nM); 6.34
C=CC(=O)Nc1cccc(Nc2nc(Nc3ccc(N4CCN(C(C)=O)CC4)cc3OC)ncc2C(F)(F)F)c1 [Rociletinib] (top concentration 10000 nM); 3.94
FC(F)(F)c1ccc(CNc2ccc(Cc3c[nH]c4ncc(Cl)cc34)cn2)cn1 [Pexidartinib] (top concentration 10000 nM); 1.98
COc1c(C)cnc(Cn2cnc3c(Cl)nc(N)nc32)c1C [BIIB021] (top concentration 10000 nM); 0.98

Provide selective drug sensitivity score values for the following items, in order.
1. CCc1c(C(=O)C(N)=O)c2c(OCC(=O)O)cccc2n1Cc1ccccc1 [Varespladib] (top concentration 10000 nM)
2. CC(=O)O[C@]1(C(C)=O)CC[C@H]2[C@@H]3C=C(C)C4=CC(=O)CC[C@]4(C)[C@H]3CC[C@@]21C [Megestrol_acetate] (top concentration 10000 nM)
3. CCN(CC)CCNC(=O)c1c(C)[nH]c(/C=C2\C(=O)Nc3ccc(F)cc32)c1C [Sunitinib] (top concentration 1000 nM)
4. CC(=O)O[C@@]12CO[C@@H]1C[C@H](O)[C@@]1(C)C(=O)[C@H](O)C3=C(C)[C@@H](OC(=O)[C@H](O)[C@@H](NC(=O)OC(C)(C)C)c4ccccc4)C[C@@](O)([C@@H](OC(=O)c4ccccc4)[C@H]21)C3(C)C [Docetaxel] (top concentration 1000 nM)
5. CO[C@H]1C[C@@H]2CC[C@@H](C)[C@@](O)(O2)C(=O)C(=O)N2CCCC[C@H]2C(=O)O[C@H]([C@H](C)C[C@@H]2CC[C@@H](OCCO)[C@H](OC)C2)CC(=O)[C@H](C)/C=C(\C)[C@@H](O)[C@@H](OC)C(=O)[C@H](C)C[C@H](C)/C=C/C=C/C=C/1C [Everolimus] (top concentration 100 nM)
6. Cc1cc2c(F)c(Oc3ncnn4cc(OC[C@@H](C)O)c(C)c34)ccc2[nH]1 [Brivanib] (top concentration 1000 nM)
7. CCS(=O)(=O)Nc1ccc(Oc2ccc(F)cc2F)c(-c2cn(C)c(=O)c3[nH]ccc23)c1 [Mivebresib] (top concentration 10000 nM)

Result:
[-0.84, -0.38, -0.84, 22.9, 3.3, -0.04, 8.9]

Provide selective drug sensitivity score values for the following items, in order.
1. COCC[n+]1c2c(n(Cc3cnccn3)c1C)C(=O)c1ccccc1C2=O [Sepantronium_bromide] (top concentration 10000 nM)
2. CN(Cc1cnc2nc(N)nc(N)c2n1)c1ccc(C(=O)N[C@@H](CCC(=O)O)C(=O)O)cc1 [Methotrexate] (top concentration 5000 nM)
3. Cn1cc(-c2ccc(F)c(C(F)(F)F)c2)nc1C1CCN(c2ncnc3[nH]ncc23)CC1 (top concentration 10000 nM)

Result:
1: 22.3; 2: -0.02; 3: 5.56

Provide selective drug sensitivity score values for the following items, in order.
1. C=CC(=O)N1CC/C(=C\c2ccc(F)c([N+](=O)[O-])c2)C(=O)/C(=C/c2ccc(F)c([N+](=O)[O-])c2)C1 [VLX1570] (top concentration 10000 nM)
2. CC1(C)CCC(c2ccc(Cl)cc2)=C(CN2CCN(c3ccc(C(=O)NS(=O)(=O)c4ccc(N[C@H](CCN5CCOCC5)CSc5ccccc5)c(S(=O)(=O)C(F)(F)F)c4)cc3)CC2)C1 [Navitoclax] (top concentration 10000 nM)
3. Nc1ncnc2c1c(-c1cccc(OCc3ccccc3)c1)cn2[C@H]1C[C@@H](CN2CCC2)C1 [NVP-AEW541] (top concentration 10000 nM)

Result:
[0.68, 22.2, -0.92]

----------
Hi there, I'd appreciate the recorded selective drug sensitivity score for every entry that follows.
- Test system: MOLT-16
- Assay Summary: selective drug sensitivity score (sDSS, relative to normal bone marrow) (sDSS (score)); higher = more potent and effective on the cell line relative to normal bone marrow cells
- Assay Setup: 72 h
One number for each entry.

# example entries with known answers
CO[C@H]1C[C@@H]2CC[C@@H](C)[C@@](O)(O2)C(=O)C(=O)N2CCCC[C@H]2C(=O)O[C@H]([C@H](C)C[C@@H]2CC[C@@H](O)[C@H](OC)C2)CC(=O)[C@H](C)/C=C(\C)[C@@H](O)[C@@H](OC)C(=O)[C@H](C)C[C@H](C)/C=C/C=C/C=C/1C [Sirolimus] (top concentration 100 nM); 5.04
O=C(NCc1ccncc1)C12CC3CC(C1)CC(c1ccc(Cl)cc1)(C3)C2 (top concentration 50000 nM); 1.58
CNc1ncc2cc(-c3cc(NC(=O)NCCC(C)(C)C)c(F)cc3C)c(C)nc2n1 (top concentration 10000 nM); 5.06
N#CC1(c2ccc(NC(=O)c3cccnc3NCc3ccncc3)cc2)CCCC1 [Apatinib] (top concentration 10000 nM); 0

Kindly review the next compound as well.
Task: Please look up its selective drug sensitivity score: Cc1c(-c2c(-c3ccc(F)o3)sc3ncnc(O[C@H](Cc4ccccc4OCc4ccnn4CC(F)(F)F)C(=O)O)c23)ccc(OCCN2CCN(C)CC2)c1Cl (top concentration 1000 nM)
Result: 7.46

Values from the supplement of paper PMC8967900
